// provenance: the supplement of paper PMC7017272

system: UT-SCC-44; assay: drug sensitivity score (DSS); higher = more sensitive; extreme values may be limits of the assay; settings: culture condition: embedded in Matrigel; treatment time: 3 days
propertyLabel: drug sensitivity score (DSS)
A number alone suffices; assume DSS.

Example cases with answers are listed next.
COc1ccc(-c2cc3c(C)nc(N)nc3n([C@H]3CC[C@H](OCCO)CC3)c2=O)cn1 : 10.5
CO[C@H]1C[C@@H]2CC[C@@H](C)[C@@](O)(O2)C(=O)C(=O)N2CCCC[C@H]2C(=O)O[C@H]([C@H](C)C[C@@H]2CC[C@@H](OCCO)[C@H](OC)C2)CC(=O)[C@H](C)/C=C(\C)[C@@H](O)[C@@H](OC)C(=O)[C@H](C)C[C@H](C)/C=C/C=C/C=C/1C : 2.47
COc1cc2ncnc(Nc3ccc(F)c(Cl)c3)c2cc1OCCCN1CCOCC1 : 0

Exam item: Provide drug sensitivity score, tested on UT-SCC-44, for Cn1cnc2c(F)c(Nc3ccc(Br)cc3Cl)c(C(=O)NOCCO)cc21 .
Marked response: 15.8

Exam item: Provide drug sensitivity score, tested on UT-SCC-44, for CN(C)C/C=C/C(=O)Nc1cc2c(Nc3ccc(F)c(Cl)c3)ncnc2cc1O[C@H]1CCOC1 .
Marked response: 0.233

Exam item: Provide drug sensitivity score, tested on UT-SCC-44, for C#Cc1cccc(Nc2ncnc3cc(OCCOC)c(OCCOC)cc23)c1 .
Marked response: 0

Exam item: Provide drug sensitivity score, tested on UT-SCC-44, for CO[C@H]1C[C@@H]2CC[C@@H](C)[C@@](O)(O2)C(=O)C(=O)N2CCCC[C@H]2C(=O)O[C@H]([C@H](C)C[C@@H]2CC[C@@H](O)[C@H](OC)C2)CC(=O)[C@H](C)/C=C(\C)[C@@H](O)[C@@H](OC)C(=O)[C@H](C)C[C@H](C)/C=C/C=C/C=C/1C .
Marked response: 6.6

Exam item: Provide drug sensitivity score, tested on UT-SCC-44, for CC(=O)Nc1cccc(-n2c(=O)n(C3CC3)c(=O)c3c(Nc4ccc(I)cc4F)n(C)c(=O)c(C)c32)c1 .
Marked response: 18.2

Exam item: Provide drug sensitivity score, tested on UT-SCC-44, for CO[C@H]1C[C@@H]2CC[C@@H](C)[C@@](O)(O2)C(=O)C(=O)N2CCCC[C@H]2C(=O)O[C@H]([C@H](C)C[C@@H]2CC[C@@H](OC(=O)C(C)(CO)CO)[C@H](OC)C2)CC(=O)[C@H](C)/C=C(\C)[C@@H](O)[C@@H](OC)C(=O)[C@H](C)C[C@H](C)/C=C/C=C/C=C/1C .
Marked response: 5.33

Exam item: Provide drug sensitivity score, tested on UT-SCC-44, for Cc1c(CN2CCN(C(=O)[C@H](C)O)CC2)sc2c(N3CCOCC3)nc(-c3cnc(N)nc3)nc12 .
Marked response: 9.77

Exam item: Provide drug sensitivity score, tested on UT-SCC-44, for COc1cc(F)c(F)c(Nc2ccc(I)cc2F)c1NS(=O)(=O)C1(C[C@H](O)CO)CC1 .
Marked response: 23.7

Exam item: Provide drug sensitivity score, tested on UT-SCC-44, for COc1ncc(-c2ccc3nccc(-c4ccnnc4)c3c2)cc1NS(=O)(=O)c1ccc(F)cc1F .
Marked response: 15.7

Exam item: Provide drug sensitivity score, tested on UT-SCC-44, for Cn1c(=O)n(-c2ccc(C(C)(C)C#N)cc2)c2c3cc(-c4cnc5ccccc5c4)ccc3ncc21 .
Marked response: 0

* * *

test system: UT-SCC-106A; experiment: drug sensitivity score (DSS); higher = more sensitive; extreme values may be limits of the assay; conditions: culture condition: embedded in Myogel + collagen I; treatment time: 3 days
In this section we review reported drug sensitivity score values for a set of molecules.
A number alone suffices; assume DSS.

CO[C@H]1C[C@@H]2CC[C@@H](C)[C@@](O)(O2)C(=O)C(=O)N2CCCC[C@H]2C(=O)O[C@H]([C@H](C)C[C@@H]2CC[C@@H](OCCO)[C@H](OC)C2)CC(=O)[C@H](C)/C=C(\C)[C@@H](O)[C@@H](OC)C(=O)[C@H](C)C[C@H](C)/C=C/C=C/C=C/1C : 2.77
COc1ncc(-c2ccc3nccc(-c4ccnnc4)c3c2)cc1NS(=O)(=O)c1ccc(F)cc1F : 15.4
CC(=O)Nc1cccc(-n2c(=O)n(C3CC3)c(=O)c3c(Nc4ccc(I)cc4F)n(C)c(=O)c(C)c32)c1 : 0.6
C#Cc1cccc(Nc2ncnc3cc(OCCOC)c(OCCOC)cc23)c1 : 0
Cn1c(=O)c(F)c(Nc2ccc(I)cc2F)c2c(=O)n(C[C@@H](O)CO)cnc21 : 1.2

For the next question, use this molecule.
Exam item: Provide drug sensitivity score, tested on UT-SCC-106A, for Cn1cnc2c(F)c(Nc3ccc(Br)cc3Cl)c(C(=O)NOCCO)cc21 .
Marked response: 0.867

* * *

In this section we review reported drug sensitivity score values for a set of compounds.
system: UT-SCC-81; assay: drug sensitivity score (DSS); higher = more sensitive; extreme values may be limits of the assay; settings: culture condition: on top of Myogel; treatment time: 3 days
A number alone suffices; assume DSS.

Example cases with answers are listed next.
COc1cc(F)c(F)c(Nc2ccc(I)cc2F)c1NS(=O)(=O)C1(C[C@H](O)CO)CC1 [Refametinib] : 5.53
CO[C@H]1C[C@@H]2CC[C@@H](C)[C@@](O)(O2)C(=O)C(=O)N2CCCC[C@H]2C(=O)O[C@H]([C@H](C)C[C@@H]2CC[C@@H](OP(C)(C)=O)[C@H](OC)C2)CC(=O)[C@H](C)/C=C(\C)[C@@H](O)[C@@H](OC)C(=O)[C@H](C)C[C@H](C)/C=C/C=C/C=C/1C [Ridaforolimus] : 10.9
CO[C@H]1C[C@@H]2CC[C@@H](C)[C@@](O)(O2)C(=O)C(=O)N2CCCC[C@H]2C(=O)O[C@H]([C@H](C)C[C@@H]2CC[C@@H](O)[C@H](OC)C2)CC(=O)[C@H](C)/C=C(\C)[C@@H](O)[C@@H](OC)C(=O)[C@H](C)C[C@H](C)/C=C/C=C/C=C/1C [Sirolimus] : 16.6

Exam item: Give drug sensitivity score for Cc1c(CN2CCN(C(=O)[C@H](C)O)CC2)sc2c(N3CCOCC3)nc(-c3cnc(N)nc3)nc12 [Apitolisib]
Marked response: 8.53

Exam item: Give drug sensitivity score for COc1ncc(-c2ccc3nccc(-c4ccnnc4)c3c2)cc1NS(=O)(=O)c1ccc(F)cc1F [Omipalisib]
Marked response: 21

* * *

system: UT-SCC-8; assay: drug sensitivity score (DSS); higher = more sensitive; extreme values may be limits of the assay; settings: culture condition: embedded in Myogel + collagen I; treatment time: 3 days
In this section we review reported drug sensitivity score values for a set of compounds.
Lab note: write values as number then unit, every time.

Example cases with answers are listed next.
COc1ncc(-c2ccc3nccc(-c4ccnnc4)c3c2)cc1NS(=O)(=O)c1ccc(F)cc1F [Omipalisib] : 24.1 DSS
COc1cc(F)c(F)c(Nc2ccc(I)cc2F)c1NS(=O)(=O)C1(C[C@H](O)CO)CC1 [Refametinib] : 6.63 DSS

Exam item: Provide drug sensitivity score, tested on UT-SCC-8, for CN(C)C/C=C/C(=O)Nc1cc2c(Nc3ccc(F)c(Cl)c3)ncnc2cc1O[C@H]1CCOC1 [Afatinib] .
Marked response: 0.333 DSS

Exam item: Provide drug sensitivity score, tested on UT-SCC-8, for C#Cc1cccc(Nc2ncnc3cc(OCCOC)c(OCCOC)cc23)c1 [Erlotinib] .
Marked response: 0 DSS

Exam item: Provide drug sensitivity score, tested on UT-SCC-8, for Cn1c(=O)c(F)c(Nc2ccc(I)cc2F)c2c(=O)n(C[C@@H](O)CO)cnc21 [TAK-733] .
Marked response: 2.3 DSS

Exam item: Provide drug sensitivity score, tested on UT-SCC-8, for CC(=O)Nc1cccc(-n2c(=O)n(C3CC3)c(=O)c3c(Nc4ccc(I)cc4F)n(C)c(=O)c(C)c32)c1 [Trametinib] .
Marked response: 3.9 DSS

Exam item: Provide drug sensitivity score, tested on UT-SCC-8, for CO[C@H]1C[C@@H]2CC[C@@H](C)[C@@](O)(O2)C(=O)C(=O)N2CCCC[C@H]2C(=O)O[C@H]([C@H](C)C[C@@H]2CC[C@@H](O)[C@H](OC)C2)CC(=O)[C@H](C)/C=C(\C)[C@@H](O)[C@@H](OC)C(=O)[C@H](C)C[C@H](C)/C=C/C=C/C=C/1C [Sirolimus] .
Marked response: 3.87 DSS

Exam item: Provide drug sensitivity score, tested on UT-SCC-8, for O=C(NC[C@H](O)CO)c1ccncc1Nc1ccc(I)cc1F [Pimasertib] .
Marked response: 10.7 DSS

Exam item: Provide drug sensitivity score, tested on UT-SCC-8, for Cn1cnc2c(F)c(Nc3ccc(Br)cc3F)c(C(=O)NOCCO)cc21 [Binimetinib] .
Marked response: 1.97 DSS

Exam item: Provide drug sensitivity score, tested on UT-SCC-8, for C=CC(=O)Nc1cc2c(Nc3ccc(F)c(Cl)c3)ncnc2cc1OCCCN1CCOCC1 [Canertinib] .
Marked response: 4.77 DSS
